runDescription: ADME solubility determination at pH 2.0 and pH 7.4
Assay type: physicochemical
testSettings: aqueous buffer, thermodynamic from solid; PBS pH 2.0, shaken at 25° C. for 24 hours, LC-MS/MS; read-out: Solubility at pH 2.0
parameter: solubility at 24 h

Worked examples follow.
compound: CCn1cc(C(F)(F)F)nc1-c1ccc(Cn2ncc3c(C)nc(-c4c(OC)ncnc4C4CC4)nc32)cc1
parameter: solubility at 24 h
obsValue: < 10 µM

compound: CCn1cc(C(F)(F)F)nc1-c1ccc([C@H](C)n2ncc3cnc(-c4c(OC)ncnc4C4CC4)nc32)cc1 (single isomer, unassigned)
parameter: solubility at 24 h
obsValue: > 10 µM

compound: CCn1cc(C(F)(F)F)nc1-c1ccc(Cn2nc(OC3CCC3)c3cnc(-c4c(OC)ncnc4C4CC4)nc32)cc1
parameter: solubility at 24 h
obsValue: < 10 µM

compound: COCCOc1ncnc(C2CC2)c1-c1ncc2cnn(Cc3ccc(-n4nc(C(F)(F)F)cc4C)cc3)c2n1
parameter: solubility at 24 h
obsValue: < 10 µM

compound: CCn1cc(C#N)nc1-c1ccc(Cn2ncc3cnc(-c4c(OC)ncnc4C4CC4)nc32)cc1
parameter: solubility at 24 h
obsValue: < 10 µM

compound: COc1ncnc(C2CC2)c1-c1ncc2cnn(Cc3ccc(-n4nc(C(F)(F)F)cc4OC4CNC4)cc3)c2n1
parameter: solubility at 24 h
obsValue: > 10 µM

Please look at the following compound next.
**Query** Any idea what its solubility at 24 h is? The compound is COc1ncnc(C2CC2)c1-c1ncc2cnn(Cc3ccc(-c4nc(C(F)(F)F)cn4CC(F)F)cc3)c2n1
**Result** > 10 µM

###

We begin with a simple list: items and their reported half-life at 1 μM.
runDescription: Liver microsomal stability, human liver microsomes
Type: in vitro ADME
testSettings: 1 μM compound, NADPH, read-out: t1/2 (min) in HLM

// below: answered compounds
compound: COc1cnn(C2CC2)c1-c1ncc2cnn(Cc3ccc(-c4nc(C(F)(F)F)cn4C(C)C)cc3)c2n1
half-life at 1 μM: < 25 min

compound: COc1ncnc(C2CC2)c1-c1nc(OC)c2cnn(Cc3ccc(-n4nc(C(F)(F)F)cc4C)cc3)c2n1
half-life at 1 μM: > 25 min

compound: COc1ncnc(C2CC2)c1-c1ncc2cnn([C@H](C)c3ccc(-c4nc(C(F)(F)F)cn4C)cc3)c2n1 (single isomer, unassigned)
half-life at 1 μM: < 25 min

compound: CCn1cc(C(F)(F)F)nc1-c1ccc(Cn2ncc3cnc(-c4c(OC(F)F)ncnc4C4CC4)nc32)cc1
half-life at 1 μM: > 25 min

compound: CCn1cc(C(F)(F)F)nc1-c1ccc(Cn2ncc3cnc(-c4c(OC)ncnc4C4CC4)nc32)cc1
half-life at 1 μM: > 25 min

compound: COc1ncnc(C)c1-c1ncc2cnn(Cc3ccc(-n4nc(C(F)(F)F)cc4C)cc3)c2n1
half-life at 1 μM: > 25 min

compound: COc1ncnc(C2CC2)c1-c1ncc2cnn([C@@H]3CCc4cc(-c5nc(C(F)(F)F)cn5C(C)C)ccc43)c2n1
half-life at 1 μM: > 25 min

compound: COc1ncnc(C2CC2)c1-c1ncc2ccn(Cc3ccc(-c4nc(C(F)(F)F)cn4C)cc3)c2n1
half-life at 1 μM: < 25 min

**Query** Endpoint output: half-life at 1 μM of COc1ncnc(C2CC2)c1-c1ncc2ncn(Cc3ccc(-n4nc(C(F)(F)F)cc4C)cc3)c2n1 . Value?
**Result** > 25 min

**Query** Then CCn1cc(C(F)(F)F)nc1-c1ccc([C@H](C)n2ncc3cnc(-c4c(OC)ncnc4C4CCC4)nc32)cc1 (single isomer, unassigned) ?
**Result** < 25 min

**Query** And then CSc1ncnc(C)c1-c1ncc2cnn(Cc3ccc(-n4nc(C(F)(F)F)cc4C)cc3)c2n1 , what is it?
**Result** < 25 min

**Query** Here is the next compound: COCCOc1ncnc(C2CC2)c1-c1ncc2cnn(Cc3ccc(-c4nc(C(F)(F)F)cn4C)cc3)c2n1
**Result** < 25 min

**Query** Again, but for CC(C)c1ccccc1-c1ncc2ncn(Cc3ccc(-c4nc(C(F)(F)F)cn4C)cc3)c2n1
**Result** < 25 min

**Query** What about this compound? COc1ncnc(C)c1-c1ncc2cnn(Cc3ccc(-c4nc(C(F)(F)F)cn4C)cc3)c2n1
**Result** > 25 min

**Query** Same lookup for CCn1cc(C(F)(F)F)nc1-c1ccc(Cn2ncc3cnc(-c4c(OC)ncnc4OC4CC4)nc32)cc1 , please.
**Result** < 25 min

**Query** Another compound to look at: CCc1nc2cnc(-c3c(OC)ncnc3C3CC3)nc2n1Cc1ccc(-n2nc(C(F)(F)F)cc2C)cc1
**Result** < 25 min

###

runDescription: ADME solubility determination at pH 2.0 and pH 7.4
Format: physicochemical
testSettings: aqueous buffer, thermodynamic from solid; PBS pH 7.4, shaken at 25° C. for 24 hours, LC-MS/MS; read-out: Solubility at pH 7.4
Reported solubility at 24 h is given for each of the following compounds.

Worked cases, answers included:
compound: CSc1cccc(C)c1-c1ncc2cnn(Cc3ccc(-c4nc(C(F)(F)F)cn4C)cc3)c2n1
solubility at 24 h: < 10 µM
//
compound: CC(C)c1c(F)cccc1-c1ncc2cnn(Cc3ccc(-c4nc(C(F)(F)F)cn4C)cc3)c2n1
solubility at 24 h: < 10 µM

**Query** So what does the record say about solubility at 24 h for CCn1cc(C(F)(F)F)nc1-c1ccc(Cn2nc(SC)c3cnc(-c4c(OC)ncnc4C4CC4)nc32)cc1 ?
**Result** < 10 µM

**Query** Please answer likewise for COc1nc(C)c(-c2ncc3cnn(Cc4ccc(-c5nc(C(F)(F)F)cn5C)cc4)c3n2)c(OC)n1
**Result** < 10 µM

**Query** What do you have for COc1ncnc(C2CC2)c1-c1ncc2cnn(Cc3ccc(-n4nc(C(F)(F)F)cc4N(C)C)cc3)c2n1 ?
**Result** < 10 µM

**Query** Try COc1cc(Cn2ncc3cnc(-c4c(OC)ncnc4C4CC4)nc32)ccc1-c1nc(C(F)(F)F)cn1CCF next.
**Result** < 10 µM

**Query** Another: CCn1cc(C(F)(F)F)nc1-c1ccc([C@@H](C)n2ncc3cnc(-c4c(OC)ncnc4C4CCC4)nc32)cc1 (single isomer, unassigned)
**Result** < 10 µM

**Query** How about this compound: CCn1cc(C(F)(F)F)nc1-c1ccc(Cn2nc(OC3CCC3)c3cnc(-c4c(OC)ncnc4C4CC4)nc32)cc1
**Result** < 10 µM

**Query** Moving on to the next compound: COc1ncnc(C2CC2)c1-c1ncc2ncn(Cc3ccc(-c4nc(C(F)(F)F)cn4C(C)C)cc3)c2n1
**Result** > 10 µM

**Query** Try this compound next: COc1ccccc1-c1ncc2cnn(Cc3ccc(-c4nc(C(F)(F)F)cn4C)cc3)c2n1
**Result** < 10 µM

**Query** Field entry: CCn1cc(C(F)(F)F)nc1-c1ccc(Cn2nc(OC)c3cnc(-c4c(OC)ncnc4C4CC4)nc32)cc1F
**Result** < 10 µM

**Query** And the next one, COc1ncnc(C2CC2)c1-c1ncc2cnn(Cc3ccc(-c4nc(C(F)(F)F)nn4C)c(F)c3)c2n1 ?
**Result** > 10 µM

**Query** Moving on to COc1ncnc(C2CC2)c1-c1ncc2cnn(Cc3ccc(-c4nc(C(F)(F)F)n(C)n4)cc3)c2n1
**Result** < 10 µM

###

runDescription: ADME solubility determination at pH 2.0 and pH 7.4
Type: physicochemical
testSettings: phosphate buffered saline, aqueous buffer, thermodynamic from solid; PBS pH 2.0, shaken at 25° C. for 24 hours, LC-MS/MS; read-out: Solubility at pH 2.0
parameter: solubility at 24 h

smilesEntry: COc1ncnc(C2CC2)c1-c1ncc2cnn(Cc3ccc(-c4nc(C(F)(F)F)cn4C4CN(C)C4)cc3)c2n1
solubility at 24 h: > 10 µM

**Query** Need solubility at 24 h, item CCOc1ncnc(C2CC2)c1-c1ncc2cnn(Cc3ccc(-c4nc(C(F)(F)F)cn4C)cc3)c2n1
**Result** > 10 µM

**Query** What do you get for COc1ncnc(C2CC2)c1-c1ncc2cnn(Cc3ccc(-c4nc(C(F)(F)F)nn4C)cc3)c2n1 ?
**Result** > 10 µM

**Query** Param item: Cc1ncnc(C(C)C)c1-c1ncc2cnn(Cc3ccc(-n4nc(C(F)(F)F)cc4C)cc3)c2n1
**Result** < 10 µM

###

runDescription: ADME solubility determination at pH 2.0 and pH 7.4
Type: physicochemical
testSettings: aqueous buffer, thermodynamic from solid; PBS pH 7.4, shaken at 25° C. for 24 hours, LC-MS/MS; read-out: Solubility at pH 7.4
Recorded solubility at 24 h by entry

Solved cases below.
smilesEntry: CCn1cc(C#N)nc1-c1ccc(Cn2ncc3cnc(-c4c(OC)ncnc4C4CC4)nc32)cc1
solubility at 24 h: < 10 µM
//
smilesEntry: COc1cccc(C2CC2)c1-c1ncc2cnn(Cc3ccc(-c4nc(C(F)(F)F)cn4C)cc3)c2n1
solubility at 24 h: > 10 µM
//
smilesEntry: COc1ncnc(C)c1-c1ncc2cnn(Cc3ccc(-c4nc(C(F)(F)F)cn4C)cc3)c2n1
solubility at 24 h: > 10 µM

Switching to the query record.
**Query** Item under review: COc1ncnc(C2CC2)c1-c1ncc2cnn(Cc3ccc(-n4nc(C(F)(F)F)cc4C)cc3)c2n1 . Reported solubility at 24 h?
**Result** < 10 µM
